# System: ducksalad (Heteranthera limosa)
# ASSAY: Test B flooded paddy test
# Type: in vivo
# PARTICULARS: Heteranthera limosa, Flood, 250 g ai/ha; scale of 0 to 100 where 0 is no effect and 100 is complete control; read-out: Ducksalad plant response rating
Field: pest or weed control at 250 g/ha. Provide a value for each of the compounds that follow.

Query: Quick one: pest or weed control at 250 g/ha of COc1cc([C@H]2CN(C)C(=O)[C@@H]2C(=O)Nc2ccccc2F)cc(C(F)(F)F)c1 [Compound 855] ?
Response: 75%

Query: Same lookup for CN1CC[C@H](c2cccc(Cl)c2)[C@@H](C(=O)Nc2ccccc2F)C1=O [Compound 922] , please.
Response: 0%

Query: Let us now turn to CN1C[C@H](c2cc(F)cc(Cl)c2)[C@@H](C(=O)Nc2ccccc2S(C)(=O)=O)C1=O [Compound 979]
Response: 100%

Query: What do you have for Cc1cc([C@H]2CN(C)C(=O)[C@@H]2C(=O)Nc2ccccc2S(C)(=O)=O)ccc1Cl [Compound 944] ?
Response: 75%

Query: Now the same for CCOc1cccc([C@H]2CN(C)C(=O)[C@@H]2C(=O)Nc2cccc(F)c2F)c1 [Compound 956]
Response: 100%

Query: Can you handle O=C1NC[C@H](c2cccc3c2OC(F)(F)O3)[C@H]1C(=O)Nc1ccccc1F [Compound 754] next?
Response: 40%

Query: And then CC(F)(F)c1cccc([C@H]2CNC(=O)[C@@H]2C(=O)Nc2ccc(F)cc2F)c1 [Compound 781] , what is it?
Response: 100%

Query: Next entry: COc1c(F)ccc([C@H]2CN(C)C(=O)[C@@H]2C(=O)Nc2ccccc2F)c1Cl [Compound 892]
Response: 80%

---

# Tested on: velvetleaf (Abutilon theophrasti)
# ASSAY: Test G Post-Emergence Protocol
# Type: in vivo
# PARTICULARS: Abutilon theophrasti, post-emergence, 312 h, 62.5 g ai/ha, evaluated after 13 days, 100=total damage to plant, 0=no damage to plant, read-out: Velvetleaf damage rating
READOUT_NAME: pest or weed control at 62.5 g/ha (%)
Provide the reading as a plain figure in %.

Query: What measured pest or weed control at 62.5 g/ha goes with Cc1ccc(C2CN(C)C(=O)C2C(=O)Nc2cccc(F)c2F)cc1[N+](=O)[O-] (stereo not shown) ?
Response: 10

Query: Same lookup for CCCOc1cc(OC(F)(F)F)cc(C2CN(C)C(=O)C2C(=O)Nc2cccc(F)c2F)c1 (stereo not shown) , please.
Response: 30

Query: Try CN1C[C@H](c2cccc(C(F)(F)F)c2)[C@@H](C(=O)Nc2ccc3cccnc3n2)C1=O (racemic) next.
Response: 0

Query: Please do the same for CCc1cc([C@@H]2CN(C)C(=O)[C@H]2C(=O)Nc2cccc(F)c2C)ccc1Cl (racemic) as well.
Response: 10

---

# System: Kochia (Kochia scoparia)
# ASSAY: Test A postemergence
# Format: in vivo
# PARTICULARS: Bassia scoparia, post-emergence, 240 h, 125 g ai/ha, postemergence, visual injury rating after approximately 10 d; read-out: Kochia plant response rating (0 to 100 scale, 0 no effect, 100 complete control)
For each of the compounds below, state its pest or weed control at 125 g/ha.

Query: Would you kindly share the measured pest or weed control at 125 g/ha for O=C1NC[C@H](c2cccc(C(F)(F)F)c2)[C@H]1C(=O)Nc1cccc2c1OC(F)(F)O2 [Compound 827] ?
Response: 0%

Query: Proceed to Cc1cc(C)cc([C@H]2CN(C)C(=O)[C@@H]2C(=O)Nc2cccc(F)c2F)c1 [Compound 911]
Response: 50%

Query: Now try O=C(Nc1cccc(F)c1F)[C@H]1C(=O)N(O)CC[C@@H]1c1ccc(F)cc1 [Compound 805] .
Response: 0%

---

# System: barnyardgrass (Echinochloa crus-galli)
# ASSAY: Test A preemergence
# Format: in vivo
# PARTICULARS: 125 g ai/ha, Preemergence; visual injury after approximately 10 d; 0 to 100 scale where 0 is no effect and 100 is complete control
Field 'label' (enum: Yes / No). Set to Yes when Plant response rating, Barnyardgrass is strictly under 70; else No.

Query: Determine whether this compound shows Plant response rating, Barnyardgrass lower than 70 (ties excluded): O=C1NCC(c2ccsc2Cl)C1C(=O)Nc1ccccc1F (centres unmarked) [Compound 599]
Response: Yes

Query: Likewise for CCc1cccc(C2CN(C)C(=O)C2C(=O)Nc2ccccc2S(C)(=O)=O)c1 (centres unmarked) [Compound 569] ?
Response: No

Query: Would you kindly repeat that for O=C1NCC(c2csc(Br)c2)C1C(=O)Nc1cccc(F)c1F (racemic) [Compound 649] ?
Response: No

Query: Now consider Cc1ccc(C2CNC(=O)C2C(=O)Nc2ccc(F)cc2F)cc1C(F)(F)F (racemic) [Compound 680] and answer again.
Response: Yes

Query: How about Cc1ccc(C2CN(C)C(=O)C2C(=O)Nc2ccccc2F)c(F)c1 (centres unmarked) [Compound 560] ?
Response: No

Query: Let us now turn to Cc1ccc(C2CN(C)C(=O)C2C(=O)Nc2ccccc2S(C)(=O)=O)cc1 (centres unmarked) [Compound 663]
Response: No

Query: Same lookup for O=C1NCC(c2cc(F)cc(C(F)(F)F)c2)C1C(=O)Nc1ccc(F)cc1F (centres unmarked) [Compound 490] , please.
Response: No

---

Can you tell me pest or weed control at 62.5 g/ha for the items I'm about to list?
# Test system: giant foxtail (Setaria faberi)
# ASSAY: Test G Pre-Emergence Protocol
# Assay type: in vivo
# PARTICULARS: Setaria faberi, pre-emergence, 312 h, 62.5 g ai/ha, evaluated after 13 days, 100=total damage to plant, 0=no damage to plant, read-out: Foxtail, Giant damage rating
Just the number please, in %, no unit attached.

Query: So what does the record say about pest or weed control at 62.5 g/ha for CSc1ccncc1NC(=O)[C@H]1C(=O)N(C)C[C@@H]1c1ccc(C(F)(F)F)cc1 (racemic) [Compound 1749] ?
Response: 0

Query: Record: CN1C[C@H](c2ccc(C(F)(F)F)cc2)[C@@H](C(=O)Nc2cccc3c2C(=O)OC3)C1=O (racemic) [Compound 1669]
Response: 20

Query: Entry CN1C[C@@H](c2ccc(C(F)(F)F)cc2)[C@H](C(=O)Nc2ccncc2F)C1=O (racemic) [Compound 1652] please
Response: 10

Query: Same thing, different molecule: CN1C[C@@H](c2cccc(C(F)(F)F)c2)[C@H](C(=O)Nc2cccc(F)n2)C1=O [Compound 1817]
Response: 0

---

# Tested on: Kochia (Kochia scoparia)
# ASSAY: Test A preemergence
# Assay type: in vivo
# PARTICULARS: Bassia scoparia, pre-emergence, 240 h, 500 g ai/ha, preemergence; visual injury rating about 10 d after treatment, 0 to 100 scale (0 no effect, 100 complete control); read-out: Kochia plant response rating
Exercise: state measured pest or weed control at 500 g/ha for each of the molecules provided.
// units = %; emit number, no label

Query: What value of pest or weed control at 500 g/ha has been recorded for this entry: COc1ccc([C@H]2CN(C)C(=O)[C@@H]2C(=O)Nc2cccc(F)c2F)cc1F
Response: 90

Query: And then CN1CC[C@H](c2ccccc2)[C@@H](C(=O)Nc2ccccc2F)C1=O , what is it?
Response: 0

Query: Now the molecule Cc1cc([C@H]2CNC(=O)[C@@H]2C(=O)Nc2ccccc2F)ccc1C(F)(F)F
Response: 70

Query: Entry to check: Cc1ccc([C@H]2CN(C)C(=O)[C@@H]2C(=O)Nc2ccccc2F)cc1C
Response: 80

---

# Test system: ragweed (common ragweed, Ambrosia elatior)
# ASSAY: Test A preemergence
# Type: in vivo
# PARTICULARS: Preemergence, 500 g ai/ha, visual injury approx. 10 d
READOUT_NAME: Ragweed plant response rating (0 to 100 scale, 0 is no effect, 100 is complete control)
Lab note: jot down the number only; don't add units.

Query: Requested read-out: Ragweed plant response rating (0 to 100 scale, 0 is no effect, 100 is complete control). Entry: C=C(Cl)CN1CC(c2cccc(C(F)(F)F)c2)C(C(=O)Nc2cccc(F)c2F)C1=O (centres unmarked)
Response: 0

Query: Note, next up: O=C1NCC(c2ccc(Oc3ccccc3)cc2)C1C(=O)Nc1ccc(F)cc1F (racemic)
Response: 0

Query: Again, but for CN1CC(c2cccc(Br)c2)C(C(=O)Nc2cccc(F)c2F)C1=O (centres unmarked)
Response: 50

Query: What about this compound? CN1CC(c2ccc3c(c2)OC(F)(F)O3)C(C(=O)Nc2ccccc2S(C)(=O)=O)C1=O (centres unmarked)
Response: 80

Query: # repeat for O=C1NCC(c2cccc(F)c2F)C1C(=O)Nc1cccc(F)c1F (centres unmarked)
Response: 30

Query: Another compound to look at: Cc1ccc(C2CN(C)C(=O)C2C(=O)Nc2ccc(F)cc2F)c(F)c1 (centres unmarked)
Response: 20

Query: Try this compound next: O=C1NCC(c2ccc(F)cc2F)C1C(=O)Nc1ccc(F)cc1F (racemic)
Response: 0

Query: Next: CN1CC(c2ccc(Br)cc2)C(C(=O)Nc2cccc(F)c2F)C1=O (centres unmarked)
Response: 90

Query: Also CN1CC(c2ccc(F)cc2)C(C(=O)Nc2ccc(F)cc2F)C1=O (centres unmarked) ?
Response: 40

Query: Another: Cc1ccc(C2CN(C)C(=O)C2C(=O)Nc2ccccc2F)cc1F (centres unmarked)
Response: 70

Query: Next compound: CN1CC(c2ccc(F)cc2)C(C(=O)Nc2cccc(F)c2F)C1=O (centres unmarked)
Response: 90
